Examples of compounds with documented Hepatotoxicity (steatosis) follow.
# protocolConditions: human;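 note: steatosis confirmed by histopathology, value is the count of indexed references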
measurementKind: Hepatotoxicity (steatosis)

CC(=O)O[C@H]1C[C@@]2(C)[C@@H](C[C@@H](O)[C@H]3[C@@]4(C)CC[C@@H](O)[C@@H](C)[C@@H]4CC[C@@]32C)/C1=C(\CCC=C(C)C)C(=O)O [FUSIDIC ACID]
0
CN(C)CCCN1c2ccccc2C(C)(C)c2ccccc21 [DIMETACRINE]
0
CNC=O
0
Cc1c(N)nc([C@@H](CC(N)=O)NC[C@@H](N)C(N)=O)nc1C(=O)N[C@@H](C(=O)N[C@@H](C)[C@H](O)[C@@H](C)C(=O)N[C@H](C(=O)NCCc1nc(-c2nc(C(=O)NCCCN(C)CCCN(Cc3ccc(OCc4ccccc4)c(OCc4ccccc4)c3)Cc3ccc(OCc4ccccc4)c(OCc4ccccc4)c3)cs2)cs1)[C@@H](C)O)C(O[C@H]1O[C@@H](CO)[C@H](O)[C@@H](O)[C@H]1O[C@H]1O[C@@H](CO)[C@@H](O)[C@H](OC(N)=O)[C@@H]1O)c1c[nH]cn1 (some centres undefined)
0
CCOc1nc2cccc(C(=O)O)c2n1Cc1ccc(-c2ccccc2-c2nnn[nH]2)cc1
1
CNC(=O)C[C@@H](N)C(=O)N[C@@H](C(=O)N[C@@H]1C(=O)N2[C@@H]1SC(C)(C)[C@@H]2C(=O)O)c1ccc(O)cc1 [ASPOXICILLIN]
0
CC1(C)S[C@@H]2[C@H](NC(=O)C(c3ccccc3)S(=O)(=O)O)C(=O)N2[C@H]1C(=O)O (some centres undefined) [SULBENICILLIN]
0
O=NN(CCCl)C(=O)NC1CCCCC1 [LOMUSTINE]
0
N[C@@H](Cc1ccc(O)c(O)c1)C(=O)O [LEVODOPA]
1
CN(C)c1ccc(O)c2c1C[C@H]1C[C@H]3[C@H](N(C)C)C(O)=C(C(N)=O)C(=O)[C@@]3(O)C(O)=C1C2=O [MINOCYCLINE]
2
CCOC(=O)C1=C[C@@H](OC(CC)CC)[C@H](NC(C)=O)[C@@H](N)C1 [OSELTAMIVIR]
0
CC(=O)c1ccc2c(c1)N(CCCN(C)C)c1ccccc1S2 [ACEPROMAZINE]
0
CC1=C(CC(=O)O)c2cc(F)ccc2/C1=C\c1ccc([S+](C)[O-])cc1 (centres undefined)
4
CC1(C)NC(=O)N(c2ccc([N+](=O)[O-])c(C(F)(F)F)c2)C1=O [NILUTAMIDE]
0
